- Experimental system: Histone deacetylase 1 (Homo sapiens, UniProt Q13547)
- Sequence (Q13547 whole entry): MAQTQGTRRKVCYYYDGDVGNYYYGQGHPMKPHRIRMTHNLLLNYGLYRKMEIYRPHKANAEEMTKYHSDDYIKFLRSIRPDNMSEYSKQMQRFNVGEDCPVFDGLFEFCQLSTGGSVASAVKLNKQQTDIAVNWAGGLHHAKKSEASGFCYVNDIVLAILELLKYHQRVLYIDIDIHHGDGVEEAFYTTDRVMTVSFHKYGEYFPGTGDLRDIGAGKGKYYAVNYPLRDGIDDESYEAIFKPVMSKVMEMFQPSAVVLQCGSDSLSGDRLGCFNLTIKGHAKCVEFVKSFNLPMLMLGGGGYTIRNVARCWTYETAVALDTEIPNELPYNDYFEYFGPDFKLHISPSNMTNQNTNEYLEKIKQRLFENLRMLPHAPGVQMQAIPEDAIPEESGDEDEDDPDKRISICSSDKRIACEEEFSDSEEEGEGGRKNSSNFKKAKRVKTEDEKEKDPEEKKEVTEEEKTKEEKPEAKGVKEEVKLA
- Assay conditions: Sf9, dose 100.0 nM, time 75.0 min
I would appreciate it if you labelled entries TRUE when inhibition is 9% or higher, otherwise FALSE.

Example entries and their recorded answers appear below.
{"Structure": "COc1cc2c(Oc3ccc(NC(=O)c4nn(-c5ccccc5F)cc(C)c4=O)cc3F)ccnc2cc1OCCCCCC(=O)NO", "Group label": "TRUE"}
{"Structure": "COc1cc2c(Oc3ccc(NC(=O)c4nn(-c5ccccc5)cc(C)c4=O)cc3F)ccnc2cc1OCCCCCC(=O)NO", "Group label": "TRUE"}
{"Structure": "COc1cc2c(Oc3ccc(NC(=O)c4nn(-c5ccccc5C)cc(C)c4=O)cc3)ccnc2cc1OCCCCCCC(=O)NO", "Group label": "TRUE"}
{"Structure": "CCc1cn(-c2ccccc2)nc(C(=O)Nc2ccc(Oc3ccnc4cc(OCCCCCCC(=O)NO)c(OC)cc34)cc2)c1=O", "Group label": "TRUE"}

Now consider a different compound.
Could you verify whether the entry COc1cc2c(Oc3ccc(NC(=O)c4nn(-c5ccccc5C)ccc4=O)cc3F)ccnc2cc1OCCCC(=O)NO shows inhibition of no less than 9%?
FALSE

###

- Experimental system: UniProt:P08581
- Sequence (P08581 whole entry): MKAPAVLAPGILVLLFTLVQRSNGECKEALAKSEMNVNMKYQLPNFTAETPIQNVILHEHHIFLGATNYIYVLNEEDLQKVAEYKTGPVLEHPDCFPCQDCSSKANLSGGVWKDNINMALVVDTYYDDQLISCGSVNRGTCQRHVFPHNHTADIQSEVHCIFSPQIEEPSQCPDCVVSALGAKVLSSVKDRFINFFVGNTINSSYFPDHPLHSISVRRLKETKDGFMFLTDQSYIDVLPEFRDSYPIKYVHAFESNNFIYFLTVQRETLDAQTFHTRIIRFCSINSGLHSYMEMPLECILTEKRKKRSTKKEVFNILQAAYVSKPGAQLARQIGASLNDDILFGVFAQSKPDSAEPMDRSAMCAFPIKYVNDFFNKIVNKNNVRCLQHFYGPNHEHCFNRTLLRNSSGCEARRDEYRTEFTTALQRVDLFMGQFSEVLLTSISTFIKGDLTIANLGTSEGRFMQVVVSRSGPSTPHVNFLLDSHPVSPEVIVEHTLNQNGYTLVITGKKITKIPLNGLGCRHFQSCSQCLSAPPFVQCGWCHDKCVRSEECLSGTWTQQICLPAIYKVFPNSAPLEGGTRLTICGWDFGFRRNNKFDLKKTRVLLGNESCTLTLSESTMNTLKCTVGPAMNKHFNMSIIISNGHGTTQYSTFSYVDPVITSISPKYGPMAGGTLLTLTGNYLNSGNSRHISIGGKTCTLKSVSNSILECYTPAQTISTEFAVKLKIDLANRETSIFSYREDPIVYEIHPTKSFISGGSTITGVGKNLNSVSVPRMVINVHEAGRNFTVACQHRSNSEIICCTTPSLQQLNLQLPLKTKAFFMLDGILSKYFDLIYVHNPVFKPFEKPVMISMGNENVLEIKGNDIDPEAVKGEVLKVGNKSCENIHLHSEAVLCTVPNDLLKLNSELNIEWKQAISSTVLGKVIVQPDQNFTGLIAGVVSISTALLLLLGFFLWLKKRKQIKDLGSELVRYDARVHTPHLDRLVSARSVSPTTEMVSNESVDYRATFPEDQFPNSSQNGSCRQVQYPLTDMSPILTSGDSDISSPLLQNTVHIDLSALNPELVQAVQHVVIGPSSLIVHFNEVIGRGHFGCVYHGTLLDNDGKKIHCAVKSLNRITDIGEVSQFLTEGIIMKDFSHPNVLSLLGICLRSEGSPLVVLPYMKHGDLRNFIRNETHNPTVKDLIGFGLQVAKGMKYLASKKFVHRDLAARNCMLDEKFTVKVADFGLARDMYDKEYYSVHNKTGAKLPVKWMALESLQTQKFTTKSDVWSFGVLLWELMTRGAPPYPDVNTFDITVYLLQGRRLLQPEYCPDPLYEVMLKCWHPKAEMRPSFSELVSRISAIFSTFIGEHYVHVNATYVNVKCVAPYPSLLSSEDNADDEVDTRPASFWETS
- Assay conditions: dose 100.0 nM, time 10.0 min
I would appreciate it if you labelled entries 1.0 when inhibition is 90% or higher, otherwise 0.0.

Example entries and their recorded answers appear below.
{"Structure": "COc1cc2c(Oc3ccc(NC(=O)c4nn(-c5ccccc5C)cc(C)c4=O)cc3)ccnc2cc1OCCCCCC(=O)NO", "Group label": 1.0}
{"Structure": "COc1cc2c(Oc3ccc(NC(=O)c4nn(-c5ccc(C)cc5C)cc(C)c4=O)cc3)ccnc2cc1OCCCCCCC(=O)NO", "Group label": 0.0}
{"Structure": "COc1cc2c(Oc3ccc(NC(=O)c4nn(-c5ccccc5C)cc(C)c4=O)cc3)ccnc2cc1OCCCCCCC(=O)NO", "Group label": 0.0}
{"Structure": "COc1cc2c(Oc3ccc(NC(=O)c4nn(-c5ccccc5)cc(C)c4=O)cc3F)ccnc2cc1OCCCN1CCOCC1", "Group label": 1.0}

Could you verify whether the entry COc1cc2c(Oc3ccc(NC(=O)c4nn(-c5ccccc5)cc(C)c4=O)cc3F)ccnc2cc1OCCCCCC(=O)NO shows inhibition of no less than 90%?
1.0

Ok, now COc1cc2c(Oc3ccc(NC(=O)c4nn(-c5ccccc5F)cc(C)c4=O)cc3F)ccnc2cc1OCCCC(=O)NO
1.0

Ok, now COc1cc2c(Oc3ccc(NC(=O)c4nn(-c5cccc(C(F)(F)F)c5)cc(C)c4=O)cc3)ccnc2cc1OCCCCCCC(=O)NO
0.0

Ok, now COc1cc2c(Oc3ccc(NC(=O)c4nn(-c5ccc(F)c(Cl)c5)cc(C)c4=O)cc3)ccnc2cc1OCCCCCCC(=O)NO
0.0

Ok, now COc1cc2c(Oc3ccc(NC(=O)c4nn(-c5ccccc5)cc(C)c4=O)cc3F)ccnc2cc1OCCCC(=O)NO
1.0

Ok, now COc1cc2c(Oc3ccc(NC(=O)c4nn(-c5cccc(C)c5)cc(C)c4=O)cc3)ccnc2cc1OCCCCCCC(=O)NO
0.0

Ok, now COc1cc2c(Oc3ccc(NC(=O)c4nn(-c5ccccc5C)cc(C)c4=O)cc3)ccnc2cc1OCC(=O)NO
0.0

Ok, now COc1cc2c(Oc3ccc(NC(=O)c4nn(-c5ccccc5)ccc4=O)cc3)ccnc2cc1OCCCC(=O)NO
1.0

Ok, now COc1cc2c(Oc3ccc(NC(=O)c4nn(-c5ccc(Cl)c(C(F)(F)F)c5)cc(C)c4=O)cc3)ccnc2cc1OCC(=O)NO
0.0

Ok, now CCc1cn(-c2ccccc2)nc(C(=O)Nc2ccc(Oc3ccnc4cc(OCCCCCCC(=O)NO)c(OC)cc34)cc2)c1=O
0.0
